tested on: HOP-18 NSCLC; test: NCI tumour cell line growth inhibition, 48 h
measured-metric: TGI

Data request: Hi! What's the reported TGI for O=c1cc(-c2cccnc2)[nH]c2cc3c(cc12)OCO3 on HOP-18 NSCLC?
Data returned: 84.1 µM

Data request: Could you share what TGI was measured for O=C1c2ccccc2N2Oc3ccccc3C12c1ccccc1 (stereo unspecified) , tested on HOP-18 NSCLC?
Data returned: > 100 µM

Data request: Observed TGI on HOP-18 NSCLC for CC(=O)Nc1cccc(N=NN(C)C)c1 , please.
Data returned: > 100 µM

Data request: For HOP-18 NSCLC, provide TGI of O=S(=O)(/C=C/CS(=O)(=O)c1ccccc1)c1ccccc1 please.
Data returned: > 100 µM

Data request: Find the measured TGI: item CC(=O)O[C@H]1CCC2[C@@H]3CCC4c5nonc5CC[C@]4(C)C3CC[C@@]21C (stereo partly specified) , target or system HOP-18 NSCLC.
Data returned: > 10 µM

Data request: Write down the reported TGI of CNC(=O)OCc1c2ccncc2c(C)c2c1[nH]c1ccc(OC)cc12 , test system: HOP-18 NSCLC.
Data returned: 0.738 µM

Data request: Missing value: TGI, HOP-18 NSCLC, entry O=C(N/C(=C\c1ccc(/C=C(\NC(=O)c2ccccc2)c2nc3ccccc3[nH]2)cc1)c1nc2ccccc2[nH]1)c1ccccc1 . Fill in?
Data returned: > 100 µM

Data request: Identify the measured TGI of CCn1cnnc1-c1nsc2ccccc12 for HOP-18 NSCLC.
Data returned: > 100 µM

Data request: What TGI appears in the records for this compound with HOP-18 NSCLC? COc1cccc(NC(=O)CC(=O)N2N=C(n3ccc4ccccc43)CC2c2ccccc2)c1 (stereo unspecified)
Data returned: > 100 µM

Data request: Record O=c1c(O)c(-c2ccc(O)c(O)c2)oc2cc(O)cc(O)c12 : what is its TGI with HOP-18 NSCLC?
Data returned: > 100 µM

Data request: Kindly state the measured TGI obtained for CC(Oc1ccc(OCC2CCCCC2)cc1)C(=O)NCc1ccco1 (stereo unspecified) with HOP-18 NSCLC.
Data returned: > 100 µM
